molecular target: HLA-A*0202 (human); experiment: competition with 125I-labeled probe peptide for purified HLA, gel filtration; details: remark: other sources report otherwise
pIC50: −log10 of the molar value.
readout: pIC50

• ALFDIESKV [Peptide 1129.08] = 9.15
• VLAGGFFLL [Peptide 1126.10] = 9.70
